SYSTEM: T1, soluble human IL-11 receptor extracellular domain, his-tagged (human, UniProt Q14626 24-370)
T1 chain: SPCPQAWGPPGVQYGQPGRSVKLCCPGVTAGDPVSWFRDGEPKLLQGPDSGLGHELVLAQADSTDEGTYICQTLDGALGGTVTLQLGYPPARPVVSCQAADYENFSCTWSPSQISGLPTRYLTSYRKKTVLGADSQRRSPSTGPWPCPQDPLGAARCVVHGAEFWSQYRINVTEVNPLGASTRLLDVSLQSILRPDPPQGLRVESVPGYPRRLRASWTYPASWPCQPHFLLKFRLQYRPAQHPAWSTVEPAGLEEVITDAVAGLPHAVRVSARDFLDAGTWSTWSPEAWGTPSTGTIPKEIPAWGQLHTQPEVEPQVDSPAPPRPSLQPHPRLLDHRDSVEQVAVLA
METHOD_DESCRIPTION: FACS
MEASUREMENT_LABEL: Kd
I'd appreciate it if you included the unit after the number.

Indicate the recorded Kd value for this binder: yeast-displayed wild-type human IL-11 (ligand) PGPPPGPPRVSPDPRAELDSTVLLTRSLLADTRQLAAQLRDKFPADGDHNLDSLPTLAMSAGALGALQLPGVLTRLRADLLSYLRHVQWLRRAGGSSLKTLEPELGTLQARLDRLLRRLQLLMSRLALPQPPPDPPAPPLAPPSSAWGGIRAAHAILGGLHLTLDWAVRGLLLLKTRL 8.2 nM

Next:
Indicate the recorded Kd value for this binder: yeast-displayed IL-11 GIPRD (ligand) PGPPPGPPRVSPDPRAELGSIVLLTRSLLADTRQLAAQLRDKFPADGDHNLDSLPTPAMSARALGALQLPDVLTRLRADLLSYLRHVQWLRRAGGSSLKTLEPELGTLQARLDRLLRRLQLLMSRLALPQPPPDPPAPPLAPPSSAWGGIRAAHAILGGLHLTLDWAVRGLLLLKTRL 0.19 nM

Indicate the recorded Kd value for this binder: yeast-displayed IL-11 GIPRDM (ligand) PGPPPGPPRVSPDPRAELGSIVLLTRSLLADTRQLAAQLRDKFPADGDHNLDSLPTPAMSARALGALQLPDMLTRLRADLLSYLRHVQWLRRAGGSSLKTLEPELGTLQARLDRLLRRLQLLMSRLALPQPPPDPPAPPLAPPSSAWGGIRAAHAILGGLHLTLDWAVRGLLLLKTRL 0.29 nM

Indicate the recorded Kd value for this binder: yeast-displayed IL-11 IPR (ligand) PGPPPGPPRVSPDPRAELDSIVLLTRSLLADTRQLAAQLRDKFPADGDHNLDSLPTPAMSARALGALQLPGVLTRLRADLLSYLRHVQWLRRAGGSSLKTLEPELGTLQARLDRLLRRLQLLMSRLALPQPPPDPPAPPLAPPSSAWGGIRAAHAILGGLHLTLDWAVRGLLLLKTRL 0.22 nM
